Data provenance is ChEMBL document CHEMBL5058577.

- Tested on: HEK-293T
- assay.procedure: Multiplex assay against HEK293T
- Format: toxicity, cell-based
- measurement.conditions: human, 12 h, 10 µM, compound concentration 10 uM, replicate 1
parameter: Population Hoechst High Intensity Objects (%)
Provide the reading as a plain figure in %.

CN(C)c1ccnc2sc3c(=O)n(N4CCCCCC4)cnc3c12
10
CC(=O)NCCc1c(Cc2ccccc2)[nH]c2ccccc12 [LUZINDOLE]
10

Consider now this further compound.
Kindly note the recorded Population Hoechst High Intensity Objects (%) for O=C(NCCO)c1cccc(-c2cc(Nc3ccc(OC(F)(F)F)cc3)ncn2)c1 , which is 10

----------
- System: HEK-293T
- assay.procedure: Multiplex assay against HEK293T
- Type: toxicity, cell-based
- measurement.conditions: human, 24 h, 1 µM, compound concentration 1 uM, replicate 2
parameter: Population Normal (%)
The figure you give is taken to be in %; do not add the unit.

CC(=O)NCCc1c(Cc2ccccc2)[nH]c2ccccc12
91
Cc1ccc(F)cc1C(=O)Nc1ccc(C(=O)N2Cc3cccn3Cc3ccccc32)c(Cl)c1
92
N[C@@]1(C(=O)O)CO[C@H]2[C@H](C(=O)O)[C@H]21
92

HEK-293T Population Normal (%) of Cl.Clc1ccc2nsnc2c1NC1=NCCN1 [TIZANIDINE HYDROCHLORIDE] is 94

Given the compound CC(C)(C)c1ccc(S(=O)(=O)Nc2ccc(Cl)cc2C(=O)c2cc[n+]([O-])cc2)cc1 and test system HEK-293T, the measured Population Normal (%) is 94

The reported Population Normal (%) value, HEK-293T, for CCOc1c2c(c(OCC)c3ncccc13)CN(c1ccc(CS(=O)(=O)NC(=O)Cc3ccccc3OC)cc1C)C2=O reads 96

# CNC[C@H](O)c1ccc(O)c(O)c1 [EPINEPHRINE] with HEK-293T: Population Normal (%) is 92

Entry O=C(O)Cc1ccccc1Nc1c(Cl)cccc1Cl under HEK-293T had Population Normal (%) of 89
